Reported IC50 values are given for each entry in this list.
- Measured Target: enképhalinase purifiée du rein de lapin (Oryctolagus cuniculus, UniProt P08049)
- Construct: l'enképhalinase purifiée du rein de lapin; from tissue; host or cells: rabbit kidney
- Sequence (P08049 whole entry): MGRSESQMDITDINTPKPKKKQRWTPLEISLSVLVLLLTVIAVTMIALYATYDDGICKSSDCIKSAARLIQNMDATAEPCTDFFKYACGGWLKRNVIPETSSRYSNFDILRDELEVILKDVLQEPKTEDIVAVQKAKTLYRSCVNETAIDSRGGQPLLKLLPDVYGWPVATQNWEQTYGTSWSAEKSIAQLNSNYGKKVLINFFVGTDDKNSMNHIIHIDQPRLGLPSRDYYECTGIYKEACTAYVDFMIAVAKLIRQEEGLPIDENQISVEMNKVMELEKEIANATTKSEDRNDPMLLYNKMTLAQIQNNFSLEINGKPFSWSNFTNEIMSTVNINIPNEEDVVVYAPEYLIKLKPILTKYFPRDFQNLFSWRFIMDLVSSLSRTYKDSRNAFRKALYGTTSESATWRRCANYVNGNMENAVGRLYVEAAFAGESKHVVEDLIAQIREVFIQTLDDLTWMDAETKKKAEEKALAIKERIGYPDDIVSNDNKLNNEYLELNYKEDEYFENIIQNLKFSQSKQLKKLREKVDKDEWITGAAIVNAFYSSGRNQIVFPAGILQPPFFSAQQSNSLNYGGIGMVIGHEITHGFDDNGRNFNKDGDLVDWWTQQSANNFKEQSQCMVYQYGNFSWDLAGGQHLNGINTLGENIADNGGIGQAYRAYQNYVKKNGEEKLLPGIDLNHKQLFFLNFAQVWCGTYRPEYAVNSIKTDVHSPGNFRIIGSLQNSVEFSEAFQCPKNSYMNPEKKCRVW
- Protocol Details: Inhibitory power on enkephalinase (endopeptidase), substrate [3H]D-Ala2-Leu5 enkephalin
- Type: biochemical
- Test Parameters: purified rabbit kidney enzyme, 20 min at 25°C, Tris-HCl pH 7.4; read-out: Enképhalinase(M), concentrations inhibitrices 50 % (converted)
Property Measured: IC50 (M)

• CC(CC(=O)O)NC(=O)C(CC(=O)NO)Cc1ccccc1 (stereo not shown) = 5e-09
• O=C(O)CCC(=O)N[C@@H](CC(=O)NO)Cc1ccccc1 = 1.4e-09
• CC(CC(=O)NC(CC(=O)NOCc1ccccc1)Cc1ccccc1)C(=O)O (stereo not shown) = 5e-10
• O=C(O)C[C@H](Cc1ccccc1)NC(=O)[C@@H](CC(=O)NO)Cc1ccccc1 = 2e-09
• CC(CC(=O)O)C(=O)N[C@@H](CC(=O)NO)Cc1ccccc1 (stereo partly shown) = 9e-10
• O=C(O)CCNC(=O)C(CC(=O)NO)Cc1ccccc1 (racemic) = 2e-09
• CC(CNC(=O)C(CC(=O)NO)Cc1ccccc1)C(=O)O (stereo not shown) = 2e-09
